System: U251 CNS
Assay notes: NCI tumour cell line growth inhibition, 48 h
Reported metric: TGI

Reference set, count: 2
- Compound: "Cc1cc(C)c(S(=O)(=O)N(CCCN)OCCON(CCCN)S(=O)(=O)c2c(C)cc(C)cc2C)c(C)c1"
  TGI: "> 100 µM"
- Compound: "Cc1cnc2c(c1)C(=O)N(c1ccc([N+](=O)[O-])cc1)S2(=O)=O"
  TGI: "> 100 µM"

Okay, next one:
Query block: Item under review: Cc1ccc(NC(=O)/C(=N\NC(N)=S)C(C#N)c2ccccc2C)cc1C (stereo not drawn) . Reported TGI?
Result block: > 100 µM

====

Test system: HCT-15 colon
Assay notes: NCI tumour cell line growth inhibition, 48 h
Reported metric: TGI

- Molecule: "Cc1cc(C)c(S(=O)(=O)N(CCCN)OCCON(CCCN)S(=O)(=O)c2c(C)cc(C)cc2C)c(C)c1"
  TGI: "70.5 µM"
- Molecule: "CC(=O)N=c1ccc2nc(N)nn(O)c-2c1"
  TGI: "> 100 µM"
- Molecule: "CC1CCC2CC1NC(=O)CCOCCC(=O)NC2(C)C (configuration not stated)"
  TGI: "> 100 µM"
- Molecule: "Cc1c2ccccc2c(C2C3C(=O)N(c4cccc5ccccc45)C(=O)C3ON2Cc2ccc(CC(N)=O)cc2)c2ccccc12 (configuration not stated)"
  TGI: "> 50 µM"

Would you mind giving TGI for every molecule in the list below?
1. O=C(O)CNCCc1ccccc1
2. C(=N\NC1=NCCN1)/c1cccc2cc3ccncc3nc12

Result block:
["> 100 µM", "13.1 µM"]
